pKi: −log10 of the molar value.
pKi tested on Yersiniabactin biosynthetic protein (Yersinia pestis): recorded values
Sequence (A0A2S9PH42 whole entry): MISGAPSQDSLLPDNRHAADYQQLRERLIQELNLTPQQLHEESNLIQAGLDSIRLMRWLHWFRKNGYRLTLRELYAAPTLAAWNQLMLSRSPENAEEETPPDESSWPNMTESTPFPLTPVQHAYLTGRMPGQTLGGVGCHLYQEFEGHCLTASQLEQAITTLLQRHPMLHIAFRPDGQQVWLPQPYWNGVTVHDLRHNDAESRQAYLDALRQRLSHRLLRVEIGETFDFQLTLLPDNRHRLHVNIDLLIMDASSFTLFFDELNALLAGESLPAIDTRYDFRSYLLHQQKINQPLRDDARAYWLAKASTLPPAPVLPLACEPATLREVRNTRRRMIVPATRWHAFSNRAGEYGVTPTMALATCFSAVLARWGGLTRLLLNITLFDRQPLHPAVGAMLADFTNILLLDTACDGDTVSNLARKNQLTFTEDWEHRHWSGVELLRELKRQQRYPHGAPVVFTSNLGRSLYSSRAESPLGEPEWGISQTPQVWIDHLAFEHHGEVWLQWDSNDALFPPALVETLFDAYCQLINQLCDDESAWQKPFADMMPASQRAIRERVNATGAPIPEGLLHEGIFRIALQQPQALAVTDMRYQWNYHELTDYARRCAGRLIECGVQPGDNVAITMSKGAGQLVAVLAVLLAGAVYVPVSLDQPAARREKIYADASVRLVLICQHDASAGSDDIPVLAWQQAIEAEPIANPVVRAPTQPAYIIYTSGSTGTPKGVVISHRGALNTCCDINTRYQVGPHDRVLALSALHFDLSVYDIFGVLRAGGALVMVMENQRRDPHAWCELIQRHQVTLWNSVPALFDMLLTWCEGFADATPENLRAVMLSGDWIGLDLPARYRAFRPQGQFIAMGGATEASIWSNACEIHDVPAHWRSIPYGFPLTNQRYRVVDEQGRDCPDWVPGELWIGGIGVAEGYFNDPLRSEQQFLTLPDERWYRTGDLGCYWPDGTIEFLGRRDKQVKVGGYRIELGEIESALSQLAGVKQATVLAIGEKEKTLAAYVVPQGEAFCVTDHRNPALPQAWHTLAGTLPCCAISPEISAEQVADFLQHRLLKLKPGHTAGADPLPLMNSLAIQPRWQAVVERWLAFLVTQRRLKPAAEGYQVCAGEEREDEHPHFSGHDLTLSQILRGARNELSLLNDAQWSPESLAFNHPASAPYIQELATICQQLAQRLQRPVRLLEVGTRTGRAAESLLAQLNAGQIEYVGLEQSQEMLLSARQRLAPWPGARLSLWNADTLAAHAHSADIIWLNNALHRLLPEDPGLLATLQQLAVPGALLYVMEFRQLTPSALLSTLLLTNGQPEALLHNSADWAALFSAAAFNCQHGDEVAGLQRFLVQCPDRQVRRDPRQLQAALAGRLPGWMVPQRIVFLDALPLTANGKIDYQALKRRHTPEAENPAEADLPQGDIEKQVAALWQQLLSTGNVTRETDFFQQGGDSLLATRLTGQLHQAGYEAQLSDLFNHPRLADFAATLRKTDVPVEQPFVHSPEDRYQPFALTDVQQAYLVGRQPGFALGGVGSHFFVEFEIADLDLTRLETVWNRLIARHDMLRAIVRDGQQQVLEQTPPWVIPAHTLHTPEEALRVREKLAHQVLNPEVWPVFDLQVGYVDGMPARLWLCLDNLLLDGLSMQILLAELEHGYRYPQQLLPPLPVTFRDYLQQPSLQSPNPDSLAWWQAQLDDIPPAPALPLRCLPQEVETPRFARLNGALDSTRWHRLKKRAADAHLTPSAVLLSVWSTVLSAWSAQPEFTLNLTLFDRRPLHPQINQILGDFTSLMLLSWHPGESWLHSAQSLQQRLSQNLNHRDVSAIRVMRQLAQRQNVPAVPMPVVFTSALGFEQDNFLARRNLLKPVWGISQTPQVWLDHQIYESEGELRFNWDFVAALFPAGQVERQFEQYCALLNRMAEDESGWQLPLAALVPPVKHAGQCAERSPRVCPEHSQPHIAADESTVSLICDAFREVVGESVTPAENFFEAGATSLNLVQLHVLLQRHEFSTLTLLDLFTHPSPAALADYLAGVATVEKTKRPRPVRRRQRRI
propertyLabel: pKi

1. C[C@H](N)C(=O)NS(=O)(=O)OC[C@H]1O[C@@H](n2cnc3c(N)ncnc32)[C@H](O)[C@@H]1O [ALASA] | 5.60
2. Nc1ncnc2c1ncn2[C@@H]1O[C@H](COS(=O)(=O)NC(=O)[C@@H](N)CS)[C@@H](O)[C@H]1O | 6.62
3. Nc1ncnc2c1nc1n2[C@@H]2O[C@H](COS(=O)(=O)NC(=O)[C@@H](N)CCC1)[C@@H](O)[C@H]2O | 5.77

----------
- assayComment: Drug uptake in Escherichia coli ATCC 25922 at 100 uM by LC-MS/Ms analysis
- Type: ADME
- protocolConditions: escherichia coli atcc 25922, 100 µM
propertyLabel: Drug uptake

1) C[C@H](O)C(=O)NS(=O)(=O)OC[C@H]1O[C@@H](n2cnc3c(N)ncnc32)[C@H](O)[C@@H]1O | 28 to 53 µM

----------
IC50: recorded values
- experimentalTarget: Yersiniabactin biosynthetic protein (Yersinia pestis)
propertyLabel: IC50

1. Nc1ncnc2c1ncn2[C@@H]1O[C@H](COS(=O)(=O)NC(=O)[C@@H](N)CS)[C@@H](O)[C@H]1O | 0.04 µM
2. Nc1ncnc2c1nc1n2[C@@H]2O[C@H](COS(=O)(=O)NC(=O)[C@@H](N)CCC1)[C@@H](O)[C@H]2O | 0.34 µM
3. C[C@H](N)C(=O)NS(=O)(=O)OC[C@H]1O[C@@H](n2cnc3c(N)ncnc32)[C@H](O)[C@@H]1O [ALASA] | 1.15 µM
4. Nc1ncnc2c1ncn2[C@@H]1O[C@H](COS(=O)(=O)NC(=O)[C@@H](O)CS)[C@@H](O)[C@H]1O | 16.5 µM
5. C[C@H](O)C(=O)NS(=O)(=O)OC[C@H]1O[C@@H](n2cnc3c(N)ncnc32)[C@H](O)[C@@H]1O | > 1000 µM
6. Nc1ncnc2c1nc1n2[C@@H]2O[C@H](COS(=O)(=O)NC(=O)[C@@H](O)CCC1)[C@@H](O)[C@H]2O | > 1000 µM
